test system: INS-1E rat beta cells, no cytokines, CellTiter-Glo ATP, 48 h; assay: cytokine-free beta-cell viability effect – INS-1E rat cells, ATP luminescence, cherry pick, counter-screen for beta-cell apoptosis protection project, dose response (AID 463229)
assay_readout: AC50

Problem: Returns the measured AC50 for the input molecule. Input: Cc1cc(-n2c(SCC(=O)Nc3ccc(F)c(F)c3)nc3n[nH]c(C)c3c2=N)ccc1Cl
Result: 5.84 µM

Problem: Now try COc1ccc(C(=O)Nc2ccccc2C(=O)N/N=C/c2ccccn2)cc1OC .
Result: 8.14 µM

Problem: Now try Cc1ccc(C(=O)NC2CCCc3c2cnn3-c2ccc(F)cc2F)cn1 (centres undefined) .
Result: 7.07 µM

Problem: Now try Cc1nc(C)c(-c2csc(NCCc3ccccc3)n2)s1 .
Result: 24.1 µM

Problem: Now try CC(=O)c1c(C)[nH]c(C(=O)OCC(=O)Nc2ccc(Cl)cc2[N+](=O)[O-])c1C .
Result: 2.82 µM

Problem: Now try FC(F)(F)c1nnc2c(Sc3ccccc3)nc3ccc(Cl)cc3n12 .
Result: 11.1 µM

Problem: Now try CNC(=O)c1sc(N2N=C3/C(=C/c4ccccc4)CCCC3C2c2ccccc2)nc1C (centres undefined) .
Result: 5.11 µM

Problem: Now try CCCCOc1ccc(-c2cc(C(=O)NNC(=S)NCC)c3ccccc3n2)cc1 .
Result: 6.66 µM

Problem: Now try O=C(COc1ccc([N+](=O)[O-])cc1)Nc1ccc(C(=O)NCc2cccnc2)cc1 .
Result: 0.369 µM

###

test system: INS-1E rat beta cells, no cytokines, CellTiter-Glo ATP, 48 h; experiment: cytokine-free beta-cell viability effect – INS-1E rat cells, ATP luminescence, cherry pick, counter-screen for beta-cell apoptosis protection project, dose response (AID 463229)
Please respond with reported AC50 for every item in the list.

Problem: Returns the measured AC50 for the input molecule. Input: Cc1ccc(S(=O)(=O)Nc2ccccc2N(C)S(=O)(=O)c2ccc(C)cc2)cc1
Result: 15.6 µM

Problem: Now try O=C(NCc1cccnc1)/C(=C/c1ccc(-c2ccc(Cl)cc2)o1)S(=O)(=O)c1ccccc1 .
Result: 6.93 µM

Problem: Now try CCCC(C)C(=O)Nc1nc(C)c(-c2csc(Nc3ccc(Cl)cc3)n2)s1 (centres undefined) .
Result: 3.71 µM

Problem: Now try CCCCCCCCCCOC(=O)Cn1c(COc2ccccc2)[n+](C)c2ccccc21 .
Result: 4.25 µM

###

Please respond with reported AC50 for every item in the list.
test system: INS-1E rat beta cells, no cytokines, CellTiter-Glo ATP, 48 h; experiment: cytokine-free beta-cell viability effect – INS-1E rat cells, ATP luminescence, cherry pick, counter-screen for beta-cell apoptosis protection project, dose response (AID 463229)

Problem: API: value(readout= AC50, system= INS-1E rat beta cells, no cytokines, CellTiter-Glo ATP, 48 h, query= CC1=C/C(=N\OS(=O)(=O)c2ccccc2)C(C(C)C)=CC1=O )
Result: 6.84 µM

Problem: Now try CN(C)CC(C(=O)c1ccccc1)c1ccccc1 (stereo not drawn) .
Result: 11.8 µM

Problem: Now try COc1nnc(-c2ccc(N3CCCCC3)c(NC(=O)C3CCCCC3)c2)c2ccccc12 .
Result: 5.25 µM

###

tested on: INS-1E rat beta cells, no cytokines, CellTiter-Glo ATP, 48 h; assay: cytokine-free beta-cell viability effect – INS-1E rat cells, ATP luminescence, cherry pick, counter-screen for beta-cell apoptosis protection project, dose response (AID 463229)
Please respond with reported AC50 for every item in the list.

Problem: API: value(readout= AC50, system= INS-1E rat beta cells, no cytokines, CellTiter-Glo ATP, 48 h, query= Cc1ccc(-c2c[n+](Cc3ccc(Cl)c(Cl)c3)c3n2CCC3)cc1 )
Result: 4.72 µM

Problem: Now try CCOC(=O)C1CCCN(S(=O)(=O)c2ccc(S(=O)(=O)N(CC)CC)cc2)C1 (stereo not drawn) .
Result: 3.8 µM

Problem: Now try COc1ccccc1C(CCNCc1ccc(N(C)C)cc1)c1ccc(OC(C)C)cc1 (stereo not drawn) .
Result: 9.78 µM

Problem: Now try C=C[C@H](CC(C)C)N(Cc1ccccc1)S(=O)(=O)N(Cc1ccc(OC)cc1)[C@H](C=C)CC(C)C .
Result: 5.73 µM

Problem: Now try CCOC(=O)c1cnc(-n2nc(C)cc2C)nc1Nc1ccc(O)cc1 .
Result: 1.41 µM

Problem: Now try O=S(=O)(c1ccc(F)c(F)c1F)N1CCN(c2ncnc3sccc23)CC1 .
Result: 7.17 µM

Problem: Now try CC(=O)c1cccc(NS(=O)(=O)c2ccc(N/C=C\C(=O)c3ccc(F)cc3)cc2)c1 .
Result: 4.97 µM

Problem: Now try COc1cccc(/C=N/NC(=O)c2c(C)nc3ccc(Br)cn23)c1O .
Result: 3.16 µM
